ASSAYED_SYSTEM: Lck (Homo sapiens, UniProt P06239)
Construct: Kinases are expressed as either kinase domains or full length constructs; made in house
Sequence (P06239 whole entry, species assumed, the tested form may be a part): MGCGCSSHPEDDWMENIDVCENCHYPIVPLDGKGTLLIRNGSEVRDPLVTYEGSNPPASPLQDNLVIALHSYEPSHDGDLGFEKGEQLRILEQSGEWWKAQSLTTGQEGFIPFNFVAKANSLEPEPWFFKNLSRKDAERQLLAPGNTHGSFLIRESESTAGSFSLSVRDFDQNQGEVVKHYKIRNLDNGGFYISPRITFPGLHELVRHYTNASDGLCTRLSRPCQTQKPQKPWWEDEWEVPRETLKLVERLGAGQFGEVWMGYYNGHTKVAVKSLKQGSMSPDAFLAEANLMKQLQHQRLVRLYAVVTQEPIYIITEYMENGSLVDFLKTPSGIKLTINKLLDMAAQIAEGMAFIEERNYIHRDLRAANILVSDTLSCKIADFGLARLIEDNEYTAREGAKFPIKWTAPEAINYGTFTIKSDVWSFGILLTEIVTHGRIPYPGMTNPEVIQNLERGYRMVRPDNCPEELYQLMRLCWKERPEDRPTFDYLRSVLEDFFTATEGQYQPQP
ASSAY_PROCEDURE: Kinase inhibition assay (33P transfer), Lck
Type: biochemical
MEASUREMENT_SETUP: read-out: Lck-1
pIC50: −log10 of the molar value.
PROPERTY_MEASURED: pIC50

| SMILES_REPR | ASSAYED_SYSTEM | pIC50 |
| --- | --- | --- |
| COc1ccc(CNc2nc3ccccc3n2-c2ncnc(Nc3cc(OC)c(OC)c(OC)c3)n2)cc1OC | Lck (Homo sapiens, UniProt P06239) | < 5.08 |

Moving on to another molecule below.
*Q* Quick check: pIC50 of Cc1ccc2c(c1)CCCN2c1ncnc(NCc2ccccn2)n1 ?
*A* < 4.87
